Tested on: Bacillus subtilis
Measurement Description: Antibacterial activity against Bacillus subtilis assessed as inhibition of bacterial growth incubated for 24 hrs by agar well diffusion method; note: test concentration or dose not given here
Assay type: functional
Active and inactive are the calls of the source. No cut-off for these calls is given here.
Endpoint Label: diameter of the inhibition zone (DIZ)

Observe how each entry below is paired with its result.
>  <Chemical String>
COc1ccc(-n2cc(COc3ccc4c(c3)CCC4)nn2)cc1

>  <Target Or System>
Bacillus subtilis

>  <diameter of the inhibition zone (DIZ)>
10 mm

$$$$
>  <Chemical String>
COc1cccc(-n2cc(COc3ccc4c(c3)CCC4)nn2)c1

>  <Target Or System>
Bacillus subtilis

>  <diameter of the inhibition zone (DIZ)>
inactive

$$$$
>  <Chemical String>
Clc1ccc(-n2cc(COc3ccc4c(c3)CCC4)nn2)cc1

>  <Target Or System>
Bacillus subtilis

>  <diameter of the inhibition zone (DIZ)>
inactive

$$$$
>  <Chemical String>
Brc1cccc(-n2cc(COc3ccc4c(c3)CCC4)nn2)c1

>  <Target Or System>
Bacillus subtilis

>  <diameter of the inhibition zone (DIZ)>
17 mm

$$$$
>  <Chemical String>
Cc1ccc([N+](=O)[O-])cc1-n1cc(COc2ccc3c(c2)CCC3)nn1

>  <Target Or System>
Bacillus subtilis

>  <diameter of the inhibition zone (DIZ)>
12 mm

$$$$

Given CCc1ccc(-n2cc(COc3ccc4c(c3)CCC4)nn2)cc1 , respond with its diameter of the inhibition zone (DIZ).
inactive

Identify measured diameter of the inhibition zone (DIZ) corresponding to O=C(Cn1cc(COc2ccc3c(c2)CCC3)nn1)Nc1ccc(Br)cc1
inactive

Hello, please tell me recorded diameter of the inhibition zone (DIZ) for this one: Brc1ccc(-n2cc(COc3ccc4c(c3)CCC4)nn2)cc1
inactive

Please give measured diameter of the inhibition zone (DIZ) of the following entry: Cc1ccc(NC(=O)Cn2cc(COc3ccc4c(c3)CCC4)nn2)cc1
inactive

In one line, give reported diameter of the inhibition zone (DIZ) of the entry CCc1ccc(NC(=O)Cn2cc(COc3ccc4c(c3)CCC4)nn2)cc1 .
inactive

Supply diameter of the inhibition zone (DIZ) value. Item: O=C(Cn1cc(COc2ccc3c(c2)CCC3)nn1)Nc1cccc(Cl)c1
12 mm

# return recorded diameter of the inhibition zone (DIZ) for entry O=C(Cn1cc(COc2ccc3c(c2)CCC3)nn1)Nc1ccc(Cl)cc1
inactive

Tell us which diameter of the inhibition zone (DIZ) value is on record for Fc1ccccc1-n1cc(COc2ccc3c(c2)CCC3)nn1
inactive

====

System: Saccharomyces cerevisiae
Measurement Description: Antifungal activity against Saccharomyces cerevisiae assessed as inhibition of […] growth incubated for overnight by CLSI based method
Format: functional
Endpoint Label: log10 MIC (log10 of the value in µg/mL)
Please keep in mind that the values are log10 of MIC expressed in µg/mL.

>  <Compound>
O=C(Cn1cc(COc2ccc3c(c2)CCC3)nn1)Nc1cccc([N+](=O)[O-])c1

>  <Target Or System>
Saccharomyces cerevisiae

>  <log10 MIC>
2.13

$$$$
>  <Compound>
O=C(Cn1cc(COc2ccc3c(c2)CCC3)nn1)Nc1cccc(Cl)c1

>  <Target Or System>
Saccharomyces cerevisiae

>  <log10 MIC>
2.36

$$$$
>  <Compound>
OC(Cn1cncn1)(Cn1cncn1)c1ccc(F)cc1F [FLUCONAZOLE]

>  <Target Or System>
Saccharomyces cerevisiae

>  <log10 MIC>
1.08

$$$$

# return log10 MIC of COc1ccccc1NC(=O)Cn1cc(COc2ccc3c(c2)CCC3)nn1 (system: Saccharomyces cerevisiae)
2.32

Give reported log10 MIC for Cc1ccc([N+](=O)[O-])cc1-n1cc(COc2ccc3c(c2)CCC3)nn1 (Saccharomyces cerevisiae)
2.18

====

Test system: Bacillus subtilis
Measurement Description: Antibacterial activity against Bacillus subtilis assessed as inhibition of bacterial growth incubated for 24 hrs by agar well diffusion method; note: test concentration or dose not given here
Assay type: functional
Activity calls are given as the source filed them. No cut-off for these calls is given here.
Endpoint Label: diameter of the inhibition zone (DIZ)

// solved cases for diameter of the inhibition zone (DIZ) follow
>  <Chemical String>
O=C(Cn1cc(COc2ccc3c(c2)CCC3)nn1)Nc1ccc(F)cc1

>  <diameter of the inhibition zone (DIZ)>
inactive

$$$$
>  <Chemical String>
c1ccc(-n2cc(COc3ccc4c(c3)CCC4)nn2)cc1

>  <diameter of the inhibition zone (DIZ)>
inactive

$$$$
>  <Chemical String>
Cc1cc(C)c(-n2cc(COc3ccc4c(c3)CCC4)nn2)c(C)c1

>  <diameter of the inhibition zone (DIZ)>
inactive

$$$$
>  <Chemical String>
Cc1ccc(NC(=O)Cn2cc(COc3ccc4c(c3)CCC4)nn2)c(C)c1

>  <diameter of the inhibition zone (DIZ)>
inactive

$$$$
>  <Chemical String>
O=C(Cn1cc(COc2ccc3c(c2)CCC3)nn1)Nc1cccc([N+](=O)[O-])c1

>  <diameter of the inhibition zone (DIZ)>
11 mm

$$$$

Please supply the value of reported diameter of the inhibition zone (DIZ) for the item Cc1ccc(-n2cc(COc3ccc4c(c3)CCC4)nn2)c(C)c1
10 mm

Note down diameter of the inhibition zone (DIZ) recorded for O=C(Cn1cc(COc2ccc3c(c2)CCC3)nn1)Nc1ccccc1
12 mm

Query diameter of the inhibition zone (DIZ) for COc1ccc(NC(=O)Cn2cc(COc3ccc4c(c3)CCC4)nn2)cc1
inactive

Identify measured diameter of the inhibition zone (DIZ) corresponding to Cc1ccc([N+](=O)[O-])cc1NC(=O)Cn1cc(COc2ccc3c(c2)CCC3)nn1
inactive

Look up diameter of the inhibition zone (DIZ) of Cc1ccccc1NC(=O)Cn1cc(COc2ccc3c(c2)CCC3)nn1 and report it.
inactive

====

Tested on: Saccharomyces cerevisiae
Measurement Description: Antifungal activity against Saccharomyces cerevisiae assessed as inhibition of […] growth incubated for overnight by CLSI based method
Assay type: functional
Endpoint Label: MIC
Express the reported value numerically, then name its unit.

Answered examples (5):
>  <Chemical String>
COc1ccc(-n2cc(COc3ccc4c(c3)CCC4)nn2)cc1

>  <Target Or System>
Saccharomyces cerevisiae

>  <MIC>
210 µg/mL

$$$$
>  <Chemical String>
Cc1ccc(-n2cc(COc3ccc4c(c3)CCC4)nn2)c(C)c1

>  <Target Or System>
Saccharomyces cerevisiae

>  <MIC>
50 µg/mL

$$$$
>  <Chemical String>
Brc1ccccc1-n1cc(COc2ccc3c(c2)CCC3)nn1

>  <Target Or System>
Saccharomyces cerevisiae

>  <MIC>
110 µg/mL

$$$$
>  <Chemical String>
O=C(Cn1cc(COc2ccc3c(c2)CCC3)nn1)Nc1ccccc1

>  <Target Or System>
Saccharomyces cerevisiae

>  <MIC>
110 µg/mL

$$$$
>  <Chemical String>
O=[N+]([O-])c1cccc(-n2cc(COc3ccc4c(c3)CCC4)nn2)c1

>  <Target Or System>
Saccharomyces cerevisiae

>  <MIC>
180 µg/mL

$$$$

Please find the next compound below.
Return MIC (reported value) for this compound: Brc1cccc(-n2cc(COc3ccc4c(c3)CCC4)nn2)c1
160 µg/mL

====

Test system: Shigella boydii
Measurement Description: Antibacterial activity against Shigella boydii assessed as inhibition of bacterial growth incubated for 24 hrs by agar well diffusion method; for DIZ: test concentration or dose not given here
Type: functional
Calls of active or inactive are those of the source. The calls are words filed in the database; no cut-off is given here.
Endpoint Label: diameter of the inhibition zone (DIZ)

>  <Chemical String>
Cc1ccccc1NC(=O)Cn1cc(COc2ccc3c(c2)CCC3)nn1

>  <Target Or System>
Shigella boydii

>  <Measurement>
11 mm

$$$$
>  <Chemical String>
Cc1ccc(NC(=O)Cn2cc(COc3ccc4c(c3)CCC4)nn2)cc1

>  <Target Or System>
Shigella boydii

>  <Measurement>
inactive

$$$$
>  <Chemical String>
Cc1ccc(-n2cc(COc3ccc4c(c3)CCC4)nn2)c(C)c1

>  <Target Or System>
Shigella boydii

>  <Measurement>
11 mm

$$$$
>  <Chemical String>
Cc1ccc(-n2cc(COc3ccc4c(c3)CCC4)nn2)cc1

>  <Target Or System>
Shigella boydii

>  <Measurement>
inactive

$$$$
>  <Chemical String>
Brc1ccc(-n2cc(COc3ccc4c(c3)CCC4)nn2)cc1

>  <Target Or System>
Shigella boydii

>  <Measurement>
inactive

$$$$
>  <Chemical String>
COc1ccccc1-n1cc(COc2ccc3c(c2)CCC3)nn1

>  <Target Or System>
Shigella boydii

>  <Measurement>
inactive

$$$$
>  <Chemical String>
O=C(Cn1cc(COc2ccc3c(c2)CCC3)nn1)Nc1ccc(Cl)cc1

>  <Target Or System>
Shigella boydii

>  <Measurement>
inactive

$$$$
>  <Chemical String>
COc1cccc(-n2cc(COc3ccc4c(c3)CCC4)nn2)c1

>  <Target Or System>
Shigella boydii

>  <Measurement>
13 mm

$$$$
>  <Chemical String>
c1ccc(-n2cc(COc3ccc4c(c3)CCC4)nn2)cc1

>  <Target Or System>
Shigella boydii

>  <Measurement>
inactive

$$$$

Consider the compound CCc1ccc(NC(=O)Cn2cc(COc3ccc4c(c3)CCC4)nn2)cc1 and give its recorded diameter of the inhibition zone (DIZ).
11 mm
